molecular target: organic anion transporting polypeptide 1B1 (OATP1B1) (Homo sapiens (Human)); assay: OATP assay in CHO-OATP1B1 cells
Starred links: 1 amine or outer side, 2 acyl side, 3 side chain; linkers in the order of their positions; H or OH if unused. Non-standard residues stand in square brackets, D forms with d. Residues, ends and D or L forms follow the SMILES beside them. X74 = C[C@H](CCN1CCN2C(=O)OC[C@@H]2C1)[C@@H](C(=O)[*:2])N(C)[*:1]; MeBmt = C/C=C/C[C@@H](C)[C@@H](O)[C@H](NC)C(=O)O; NMeL = CN[C@@H](CC(C)C)C(=O)O; NMeV = CN[C@H](C(=O)O)C(C)C; dNMeA = CN[C@H](C)C(=O)O; Abu = CC[C@H](N)C(=O)O
reportedMetric: pIC50
Just so you know, pIC50 here is -log10 of the concentration in molar units; reply with that number alone.

The reported organic anion transporting polypeptide 1B1 (OATP1B1) (Homo sapiens (Human)) pIC50 of C/C=C/C[C@@H](C)[C@@H](O)[C@H]1C(=O)N[C@@H](CC)C(=O)N(C)[C@H](C)C(=O)N(C)[C@@H]([C@H](C)CCN2CCN3C(=O)OC[C@@H]3C2)C(=O)N[C@@H](C(C)C)C(=O)N(C)[C@@H](CC(C)C)C(=O)N[C@@H](C)C(=O)N[C@H](C)C(=O)N(C)[C@@H](CC(C)C)C(=O)N(C)[C@@H](CC(C)C)C(=O)N(C)[C@@H](C(C)C)C(=O)N1C [Compound 2.18.9] (cyclo(A[dA][NMeL][NMeL][NMeV][MeBmt][Abu][dNMeA][X74]V[NMeL])) is 5.55

* * *

target: organic anion transporting polypeptide 1B1 (OATP1B1) (Homo sapiens (Human), UniProt Q9Y6L6); assay: OATP assay in CHO-OATP1B1 cells;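 also: inhibition of probe substrate uptake into the cells, ten minutes exposure, accumulated substrate read by fluorescence once cells were lysed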
Sequence (Q9Y6L6 whole entry): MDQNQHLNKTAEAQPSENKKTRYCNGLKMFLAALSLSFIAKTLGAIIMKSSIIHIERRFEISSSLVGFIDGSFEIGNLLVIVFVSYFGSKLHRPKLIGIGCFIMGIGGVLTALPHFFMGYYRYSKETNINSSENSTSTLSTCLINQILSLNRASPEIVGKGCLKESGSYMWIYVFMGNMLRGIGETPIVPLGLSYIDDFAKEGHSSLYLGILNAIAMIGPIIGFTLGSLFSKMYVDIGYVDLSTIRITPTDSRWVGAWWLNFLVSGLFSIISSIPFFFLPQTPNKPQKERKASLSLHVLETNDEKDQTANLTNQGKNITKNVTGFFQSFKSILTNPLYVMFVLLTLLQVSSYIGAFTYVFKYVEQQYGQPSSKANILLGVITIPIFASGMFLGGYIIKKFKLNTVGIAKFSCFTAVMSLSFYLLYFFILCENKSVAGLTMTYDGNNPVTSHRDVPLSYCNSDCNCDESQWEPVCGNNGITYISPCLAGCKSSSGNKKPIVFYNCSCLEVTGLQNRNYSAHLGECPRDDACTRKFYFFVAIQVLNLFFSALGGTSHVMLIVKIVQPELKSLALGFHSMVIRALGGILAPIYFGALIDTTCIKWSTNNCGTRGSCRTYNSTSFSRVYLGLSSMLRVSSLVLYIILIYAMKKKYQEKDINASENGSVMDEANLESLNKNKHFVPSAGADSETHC
Starred links: 1 amine or outer side, 2 acyl side, 3 side chain; linkers in the order of their positions; H or OH if unused. Non-standard residues stand in square brackets, D forms with d. Residues, ends and D or L forms follow the SMILES beside them. X44 = CC(C)N1CCN(C(=O)COC[C@@H](C)[C@@H](C(=O)[*:2])N(C)[*:1])CC1; X25 = CCN1CCO[C@H](COC[C@@H](C)[C@@H](C(=O)[*:2])N(C)[*:1])C1; X55 = C[C@H](CN(C)CC(=O)N(C)C)[C@@H](C(=O)[*:2])N(C)[*:1]; X51 = C[C@H](CN1CCC2(COC2)C1)[C@@H](C(=O)[*:2])N(C)[*:1]; MeBmt = C/C=C/C[C@@H](C)[C@@H](O)[C@H](NC)C(=O)O; X24 = C[C@H](CO)[C@@H](C(=O)[*:2])N(C)[*:1]; NMeL = CN[C@@H](CC(C)C)C(=O)O; NMeV = CN[C@H](C(=O)O)C(C)C; dNMeA = CN[C@H](C)C(=O)O; Abu = CC[C@H](N)C(=O)O
reportedMetric: IC50 (nM)
Form entry: value (nM) — number only.

C/C=C/C[C@@H](C)[C@@H](O)[C@H]1C(=O)N[C@@H](CC)C(=O)N(C)[C@H](C)C(=O)N(C)[C@@H]([C@H](C)COCC(=O)N2CCN(C(C)C)CC2)C(=O)N[C@@H](C(C)C)C(=O)N(C)[C@@H](CC(C)C)C(=O)N[C@@H](C)C(=O)N[C@H](C)C(=O)N(C)[C@@H](CC(C)C)C(=O)N(C)[C@@H](CC(C)C)C(=O)N(C)[C@@H](C(C)C)C(=O)N1C [Compound 2.6.4] (cyclo(A[dA][NMeL][NMeL][NMeV][MeBmt][Abu][dNMeA][X44]V[NMeL])) | 8000

# IC50 (compound: C/C=C/C[C@@H](C)[C@@H](O)[C@H]1C(=O)N[C@@H](CC)C(=O)N(C)[C@H](C)C(=O)N(C)[C@@H]([C@H](C)CN2CCC3(COC3)C2)C(=O)N[C@@H](C(C)C)C(=O)N(C)[C@@H](CC(C)C)C(=O)N[C@@H](C)C(=O)N[C@H](C)C(=O)N(C)[C@@H](CC(C)C)C(=O)N(C)[C@@H](CC(C)C)C(=O)N(C)[C@@H](C(C)C)C(=O)N1C [Compound 2.5.33] (cyclo(A[dA][NMeL][NMeL][NMeV][MeBmt][Abu][dNMeA][X51]V[NMeL])) ) is 2000

# IC50 (compound: C/C=C/C[C@@H](C)[C@@H](O)[C@H]1C(=O)N[C@@H](CC)C(=O)N(C)[C@H](C)C(=O)N(C)[C@@H]([C@H](C)COC[C@@H]2CN(CC)CCO2)C(=O)N[C@@H](C(C)C)C(=O)N(C)[C@@H](CC(C)C)C(=O)N[C@@H](C)C(=O)N[C@H](C)C(=O)N(C)[C@@H](CC(C)C)C(=O)N(C)[C@@H](CC(C)C)C(=O)N(C)[C@@H](C(C)C)C(=O)N1C [Compound 2.20.1] (cyclo(A[dA][NMeL][NMeL][NMeV][MeBmt][Abu][dNMeA][X25]V[NMeL])) ) is 1900

# IC50 (compound: C/C=C/C[C@@H](C)[C@@H](O)[C@H]1C(=O)N[C@@H](CC)C(=O)N(C)[C@H](C)C(=O)N(C)[C@@H]([C@H](C)CO)C(=O)N[C@@H](C(C)C)C(=O)N(C)[C@@H](CC(C)C)C(=O)N[C@@H](C)C(=O)N[C@H](C)C(=O)N(C)[C@@H](CC(C)C)C(=O)N(C)[C@@H](CC(C)C)C(=O)N(C)[C@@H](C(C)C)C(=O)N1C [Compound 2.5.1] (cyclo(A[dA][NMeL][NMeL][NMeV][MeBmt][Abu][dNMeA][X24]V[NMeL])) ) is 3600

# IC50 (compound: C/C=C/C[C@@H](C)[C@@H](O)[C@H]1C(=O)N[C@@H](CC)C(=O)N(C)[C@H](C)C(=O)N(C)[C@@H]([C@H](C)CN(C)CC(=O)N(C)C)C(=O)N[C@@H](C(C)C)C(=O)N(C)[C@@H](CC(C)C)C(=O)N[C@@H](C)C(=O)N[C@H](C)C(=O)N(C)[C@@H](CC(C)C)C(=O)N(C)[C@@H](CC(C)C)C(=O)N(C)[C@@H](C(C)C)C(=O)N1C [Compound 2.5.27] (cyclo(A[dA][NMeL][NMeL][NMeV][MeBmt][Abu][dNMeA][X55]V[NMeL])) ) is 2700

Provenance of the data: patent US9566312B2
